Target: recombinant human HER2 (AA 23-653) (Homo sapiens, UniProt P04626)
Assay: SPR
PARAMETER MEASURED: binding result

1. HER2 VHH (2Rs15d) N101D (VHH) VHH: QVQLQESGGGSVQAGGSLKLTCAASGYIFNSCGMGWYRQSPGRERELVSRISGDGDTWHKESVKGRFTISQDNVKKTLYLQMNSLKPEDTAVYFCAVCYDLETYWGQGTQVTVSS    binds
2. HER2 VHH (2Rs15d) Y28D (VHH) VHH: QVQLQESGGGSVQAGGSLKLTCAASGDIFNSCGMGWYRQSPGRERELVSRISGDGDTWHKESVKGRFTISQDNVKKTLYLQMNSLKPEDTAVYFCAVCYNLETYWGQGTQVTVSS    binds
3. HER2 VHH (2Rs15d) Y28S (VHH) VHH: QVQLQESGGGSVQAGGSLKLTCAASGSIFNSCGMGWYRQSPGRERELVSRISGDGDTWHKESVKGRFTISQDNVKKTLYLQMNSLKPEDTAVYFCAVCYNLETYWGQGTQVTVSS    binds
4. HER2 VHH (2Rs15d) T58S (VHH) VHH: QVQLQESGGGSVQAGGSLKLTCAASGYIFNSCGMGWYRQSPGRERELVSRISGDGDSWHKESVKGRFTISQDNVKKTLYLQMNSLKPEDTAVYFCAVCYNLETYWGQGTQVTVSS    binds
